Tested on: MT4 cells
Experiment: in vitro
Method: For the antiviral assay utilizing MT4 cells, 0.4 μL of […] test concentration of 3-fold serially diluted compound in DMSO was added to 40 μL of cell growth medium (RPMI 1640, 10% FBS, 1% penicilline/Streptomycine, 1% L-Glutamine, 1% HEPES) in each well of 384-well assay plates (10 concentrations) in quidruplicate. […]
reported_metric: CC50 (µM)
The response must be a number in µM with no trailing unit.

Short answer on MT4 cells for O=C(NCc1c(F)cc(F)cc1F)c1cn2c(c(O)c1=O)C(=O)N1[C@H]3CC[C@H](CC3)[C@H]1C2 , CC50: 11.6

Short answer on MT4 cells for O=C(NCc1c(F)cc(F)cc1F)c1cn2c(c(O)c1=O)C(=O)N1[C@H]3CC[C@H](CC3)[C@@H]1C2 , CC50: 12
